Cited source: ChEMBL document CHEMBL1138080

Assignment: determine reported pIC50 for the given compounds.
Target: Polyunsaturated fatty acid 5-lipoxygenase (Homo sapiens, UniProt P09917)
Sequence (P09917 whole entry): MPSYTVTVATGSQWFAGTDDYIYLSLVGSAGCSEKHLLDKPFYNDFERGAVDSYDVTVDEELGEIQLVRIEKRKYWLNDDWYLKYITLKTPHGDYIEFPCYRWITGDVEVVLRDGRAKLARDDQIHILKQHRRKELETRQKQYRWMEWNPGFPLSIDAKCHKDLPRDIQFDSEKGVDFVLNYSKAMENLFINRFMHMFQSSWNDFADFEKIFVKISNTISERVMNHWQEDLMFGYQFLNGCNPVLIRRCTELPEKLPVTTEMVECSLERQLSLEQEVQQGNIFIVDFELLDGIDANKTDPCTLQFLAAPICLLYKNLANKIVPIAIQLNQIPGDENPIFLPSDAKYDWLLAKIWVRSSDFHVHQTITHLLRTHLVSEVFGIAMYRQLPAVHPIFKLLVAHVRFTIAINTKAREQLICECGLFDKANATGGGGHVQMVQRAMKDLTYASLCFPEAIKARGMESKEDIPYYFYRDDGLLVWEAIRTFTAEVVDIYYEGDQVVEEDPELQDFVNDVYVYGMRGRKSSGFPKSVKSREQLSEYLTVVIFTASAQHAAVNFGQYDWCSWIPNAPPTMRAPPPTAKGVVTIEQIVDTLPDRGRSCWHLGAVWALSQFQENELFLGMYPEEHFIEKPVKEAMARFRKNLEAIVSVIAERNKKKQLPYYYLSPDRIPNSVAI
Test: Inhibition of 5-LOX in A-23187-stimulated PNML
Answers are plain numbers, as −log10 of the molar value.

In [3]: df
Out[3]:
                                   compound  numeric_readout
0  CC(Nc1[nH]c2ccc(O)cc2c1C#N)c1ccccc1 (centres undefined)             5.55

Provide reported pIC50 for each item, in the same order as listed.
1. C=CCN(CC=C)c1[nH]c2ccc(O)cc2c1C(=O)OCC
2. CCOC(=O)c1c(NC(C)c2ccccc2)[nH]c2ccccc12 (centres undefined)
3. CCOC(=O)c1c(Nc2ccccc2)[nH]c2ccc(O)cc12
4. CCOC(=O)c1c(Nc2cccc(Cl)c2)[nH]c2ccc(O)cc12
5. CCOC(=O)c1c(N2CCN(c3ccc(Cl)cc3)CC2)[nH]c2ccc(O)cc12

**Result**
5.14
5.01
5.14
5.62
5.30

Provide reported pIC50 for each item, in the same order as listed.
1. CCOC(=O)c1c(NC(C)c2ccccc2)[nH]c2ccc(O)cc12 (centres undefined)
2. CCOC(=O)c1c(Nc2ccc(C)cc2)[nH]c2ccc(O)cc12

**Result**
5.92
5.28
